Tested on: OVCAR-4
protocol description: NCI tumour cell line growth inhibition, 48 h
Activity calls are given as the source filed them. Cut-off read from the data, not from the text of the source: active = GI50 up to about 1.1 µM and inactive = higher.
Bench note: report the call from Yes = active, No = inactive

O=C1CCC(=O)N1n1c(Cc2ccccc2)n[nH]c1=O :: No
NS(=O)(=O)c1cc2c(cc1Cl)NC(Cc1ccccc1)NS2(=O)=O (stereo not given) [BENZYLHYDROCHLOROTHIAZIDE] :: No
CCC(C(=O)c1ccccc1)C(CCCC(=O)Nc1c(C)cccc1C)N=O (stereo not given) :: No
CC1=C(C(=O)Nc2ccccc2)C(c2ccc(Cl)c(Cl)c2)C(C(=O)Nc2ccccc2)=C(C)N1 :: No
CCN1CCC(O)(/C=C/c2ccc(Cl)c(Cl)c2)C(C(=O)/C=C/c2ccc(Cl)c(Cl)c2)C1 (stereo not given) :: Yes

Answer briefly: the call reported for CC1(C)Oc2ccc3c(=O)c(-c4ccccc4)c(-c4ccccc4)oc3c2C1C(=O)O (stereo not given) in this assay.
No

Answer briefly: the call reported for `[N-]=[N+]=CC(=O)c1ccccc1C#CCCc1ccccc1` in this assay.
No

Answer briefly: the call reported for C=CCC1(O)c2ccccc2C(=O)c2c(O)ccc(O)c21 (stereo not given) in this assay.
No

---

Tested on: HCC 2998
protocol description: NCI tumour cell line growth inhibition, 48 h
Activity calls are given as the source filed them. Rule as the data show it: active = GI50 up to about 1.1 µM and inactive = higher.
recorded endpoint: GI50

Below, each entry is followed by its recorded GI50 result.
CSc1nc(NC2OC(COC(C)=O)C(OC(C)=O)C(OC(C)=O)C2OC(C)=O)c(/N=C(\C)C(C)=O)c(=O)[nH]1 (stereo not drawn) :: > 100 µM (inactive)
CC1(C)CCC2(C(=O)O)C(O)CC3(C)C(=CCC4C5(C)CCC(OC6OCC(O)C(O)C6OC6OCC(O)C(O)C6OC6OCC(O)C(OC7OC(CO)C(O)C(O)C7O)C6O)C(C)(C)C5CCC43C)C2C1 (stereo not drawn) :: 40.8 µM (inactive)
CCCCCCCCC[n+]1cccc(C2C(C(=O)OCC)=C(C)NC(C)=C2C(=O)OCC)c1 :: 6.01 µM (inactive)
COc1ccc(C23C(=O)c4ccccc4N2O[C@H]2C(=O)N(c4ccccc4)C(=O)[C@H]23)cc1 (stereo partly drawn) :: > 100 µM (inactive)
COc1ccc(-c2[nH]c3c4c(nc5c(c24)C(=O)CC(C)(C)C5)CC(C)(C)C3)cc1 :: 55.6 µM (inactive)
COC1=CC(=O)c2c(c(-c3csc(C)n3)cn2C)C1=O :: 10.9 µM (inactive)
c1ccc2c(c1)CC1=C(O2)c2ccccc2OC1 :: 21.8 µM (inactive)

Could you now look at the following compound, please?
Notebook entry, HCC 2998 assay: GI50 of `O=C(O)c1nc2ccc(C(F)(F)F)cc2[nH]c1=O` = ?
> 100 µM (inactive)

---

System: UACC-257
protocol description: NCI tumour cell line growth inhibition, 48 h
Activity calls are given as the source filed them. No stated cut-off is given here; in the data, active = GI50 up to about 1.1 µM and inactive = higher.
recorded endpoint: GI50

Form field: reported GI50 of `NC12CC3CC(C1)CC(C(=O)O)(C3)C2`
> 100 µM (inactive)

Form field: reported GI50 of `CN1CCC(n2[nH]c(-c3ccccc3)c(Cc3ccccc3)c2=O)CC1`
> 100 µM (inactive)

Form field: reported GI50 of CCC(C(=O)c1ccccc1)C(CCCC(=O)Nc1c(C)cccc1C)N=O (stereo unspecified)
> 100 µM (inactive)

Form field: reported GI50 of O=C(Nc1cccc(C(F)(F)F)c1)C(=O)C(C(=O)c1ccc(Cl)c(Cl)c1)C1OC(=O)c2ccccc21 (stereo unspecified)
51.8 µM (inactive)

Form field: reported GI50 of `COC(=O)c1sc(=NC(=S)N2CCCCC2)sc1C(=O)OC`
> 100 µM (inactive)

Form field: reported GI50 of `NCCN(CCN)/[N+]([O-])=N/O`
> 100 µM (inactive)

Form field: reported GI50 of `COC(=O)[C@@H]1Cc2c([nH]c3ccccc23)[C@H](c2ccccc2)N1`
41.8 µM (inactive)

Form field: reported GI50 of `O=c1c(Cc2ccc(Cl)cc2)nnc2sc(-c3ccc([N+](=O)[O-])cc3)nn12`
17.1 µM (inactive)

Form field: reported GI50 of O=C1c2cccnc2C(=O)C2C3C=CC(C3)C12 (stereo unspecified)
13.5 µM (inactive)

Form field: reported GI50 of `COC(=O)C1=C(C(=O)OC)C(N(C)C)C(C(=O)OC)=C(C(=O)OC)S1`
> 100 µM (inactive)

Form field: reported GI50 of O=NN(CCCl)C(=O)NC1CCSc2ccccc21 (stereo unspecified)
> 100 µM (inactive)

---

Tested on: MOLT-4
protocol description: NCI tumour cell line growth inhibition, 48 h
The source made the active and inactive calls. Cut-off read from the data, not from the text of the source: active = GI50 up to about 1.1 µM and inactive = higher.
recorded endpoint: GI50

Below, each entry is followed by its recorded GI50 result.
COc1cc(C2SC(=N)Nc3c2c(C)nn3C(=O)c2ccccc2O)cc(OC)c1OC (stereo not given) :: 4 µM (inactive)
c1ccc2c(CN3CCC(C4CCN(Cc5cccc6ccccc56)CC4)CC3)cccc2c1 :: 5.27 µM (inactive)
CN1CCC(n2[nH]c(-c3ccccc3)c(Cc3ccccc3)c2=O)CC1 :: 19.5 µM (inactive)

Form field: reported GI50 of `COc1cccc(-c2cc(O)c3c(C)cc(C)nc3n2)c1`
0.531 µM (active)

Form field: reported GI50 of `CCCc1ccc(/N=C\c2cc(OC)c(OC)c(OC)c2)cc1`
> 100 µM (inactive)

Form field: reported GI50 of COC1=CC(=O)c2ccccc2C1(C)C1=NC(C)(C)CO1 (stereo not given)
> 100 µM (inactive)

Form field: reported GI50 of `C/C(=N\N=C1/C(=O)OC(c2ccccc2)=C1C(=O)c1ccccc1)c1ccc([N+](=O)[O-])cc1`
19.9 µM (inactive)

Form field: reported GI50 of `O=C1CCC(=O)N1n1c(Cc2ccccc2)n[nH]c1=O`
> 100 µM (inactive)

Form field: reported GI50 of Nc1ncn([C@@H]2C=C(CO)C(O)C2O)c(=O)n1 (stereo not given in full)
56.5 µM (inactive)

Form field: reported GI50 of `N[C@@H]1CCN(c2c(F)cc3c(=O)c(C(=O)O)cn4c3c2Oc2c-4ccc3c2ccc2ccccc23)C1`
4 µM (inactive)

---

Reported GI50 by item:
Test system: SR
protocol description: NCI tumour cell line growth inhibition, 48 h
Calls of active or inactive are those of the source. No stated cut-off is given here; in the data, active = GI50 up to about 1.1 µM and inactive = higher.

O=C(Nc1cccc2c1C(=O)c1c(NC(=O)c3ccccc3)ccc(Nc3cccc4c3C(=O)c3ccccc3C4=O)c1C2=O)c1ccccc1 :: > 100 µM (inactive)
CC1C[C@]2(C[C@@H](C)C(=O)O2)O[C@@H]2CC3(C)[C@@H]4CCC5C(C)(C)OC(=O)C[C@H]6OO[C@]4(CC[C@]3(C)C12)CC56O (some centres undefined) :: > 100 µM (inactive)
CCOC(=O)c1cc(C2CCN(CC(C)CC)C2=S)c(-c2cc(C)no2)[nH]1 (centres undefined) :: 56.5 µM (inactive)

Could you now look at the following molecule, please?
Notebook entry, SR assay: GI50 of Cc1ccc(-c2nc(-c3cnccn3)n(C3OC(CO)C(O)C(O)C3O)n2)cc1 (centres undefined) = ?
> 100 µM (inactive)

---

Reported GI50 by item:
Tested on: MDA-N
protocol description: NCI tumour cell line growth inhibition, 48 h
Activity calls are given as the source filed them. Rule as the data show it: active = GI50 up to about 1.1 µM and inactive = higher.

Form field: reported GI50 of `c1ccc(C[n+]2ccc3c(c2)CCCC3)cc1`
> 100 µM (inactive)

Form field: reported GI50 of N#CC(NCc1cccc(CNC(C#N)c2ccccc2)c1)c1ccccc1 (stereo not drawn)
37.2 µM (inactive)

---

System: NCI-H522
protocol description: NCI tumour cell line growth inhibition, 48 h
Calls of active or inactive are those of the source. No stated cut-off is given here; in the data, active = GI50 up to about 1.1 µM and inactive = higher.
recorded endpoint: GI50

COc1ccc(C(=O)C(Br)C(Br)C(=O)O)cc1 (stereo not given) :: 16.7 µM (inactive)
CC(C)=CCN1c2ccccc2[C@@]2(CC=C(C)C)CCN(C)[C@@H]12 [(+)-DEBROMOFLUSTRAMINE B] :: 18.6 µM (inactive)
COC(=O)/C=C/C1C(C(=O)OC)C2(C(=O)OC)CCC1(C(=O)OC)N2 (stereo not given) :: > 100 µM (inactive)

Form field: reported GI50 of `COc1cc2ccnc(-c3n[nH]c4cc(OC)c(OC)cc34)c2cc1OC`
22 µM (inactive)

Form field: reported GI50 of `Cc1cc(NC(=O)NC(=O)c2ccccc2NC(=O)CN(C)C)ccc1Oc1ncc(Br)cn1`
1.14 µM (inactive)

Form field: reported GI50 of CCCCCCC(C)CC(CCCCCC)NCCOC(=O)c1ccc([N+](=O)[O-])cc1 (stereo not given)
12.1 µM (inactive)

---

System: HT-29
protocol description: NCI tumour cell line growth inhibition, 48 h
The source made the active and inactive calls. No stated cut-off is given here; in the data, active = GI50 up to about 1.1 µM and inactive = higher.
Bench note: report the call from True = active, False = inactive

Known results for compounds:
COC(=O)C(=Cc1cc(OC)c(OC)c(OC)c1-c1cc2c(cc1C1(C)OCCS1)OCO2)C(=O)OC (stereo unspecified) :: False
CCCCN1C(=O)C[C@H]2[C@@H]3CCc4cc(OCCN5CCCC5)ccc4[C@H]3CC[C@]2(C)C1=O :: True

Answer briefly: the call reported for `O=C1OC(=O)c2c1c(-c1ccccc1)nc1ccccc21` in this assay.
False

Answer briefly: the call reported for `CN1C(=O)C(=CNc2ccc(Cl)cc2Cl)C(=O)N(C)C1=O` in this assay.
False

Answer briefly: the call reported for `CSc1nnc(CCC(=O)Nc2c(C)cccc2C)o1` in this assay.
False

These entries and their values trace back to ChEMBL document CHEMBL1201862.
